- Experimental Protocol: protein stability index of a GFP-peptide fusion (GPS, HEK-293T) (PSI 1-6); higher = more stable;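 note: 24-mer peptide tiles fused after GFP, lentivirally expressed, FACS-sorted into six equal bins by GFP/DsRed ratio, decoded by Illumina sequencing, PSI is the read-weighted mean bin number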
- Assay Conditions: treatment: DMSO; c terminus: a fixed tail appended
Readout Kind: protein stability index
Lab note: write the figure by itself, no unit.

Check out these entries, answers already filled in.
Entry Sequence	protein stability index
NPFFAKTLQHWPHIIRIGDLKPTG [DENND6A]	2.21
PIGKISKNKKKKLKKKQKRQAELL [SRPK2]	4.37
NFARLQTCISELRMLQREGCFRSQ [M1AP]	2.15
IKMILKMVQLDSIEDLEVTCTWKL [PRAME]	2.89
ACSAPGGLVPSEKPPMMPQAQPAI [C2CD2L]	4.24
FKRWIYLNDQNLCIPASSSFVYGA [GAN]	2.41
FILGRLCVPVFANMSREPFSTRAL [SOAT2]	2.94
WWALSTCGYFQVVNYTQGLWEKVM [SLC19A2]	2.75
DEQLNEFHCLWDDSFPEGPERLHA [HDAC6]	4.55
SFSVLNWDQVSRLHEVLTEVVPIH [TENT5C]	2.26

Input line: So what does the record say about protein stability index for PETMTCRLSNNQRYLFLDGDSHYE [ZFYVE21] ?
Output line: 2.52

Input line: Could you share which protein stability index value was measured for LHSACGLSKDHQEVETEGPESADT [TOR1AIP2] ?
Output line: 5.36

Input line: protein stability index lookup needed for PDTQALCHHLPVIRQLATSGRFIV [SMG5] , thanks.
Output line: 2.07

====

// reported protein stability index for each item listed
- Experimental Protocol: protein stability index of a GFP-peptide fusion (GPS, HEK-293T) (PSI 1-6); higher = more stable
- Assay Conditions: treatment: MLN4924 1 uM, 8 h; c terminus: a fixed tail appended

Below are worked cases with known answers.
Entry Sequence	protein stability index
VVCGMFGFPGERTYNTKVYKMFAS [LOXL2]	2.63
RTALEYCKLILSLEPDEDPLCMLL [TCF25]	2.32
SCSLVLEHQPDNIKALFRKGKVLA [FKBP8]	2.68
VGRTVLDMLIREVVEKRLCMYEHG [RSPH3]	3.39
SEDQKRLKQAKELDRERAAANEQL [CHCHD3]	5.57
ETPNPPQSAQIACSSPSVVASLPL [MAGEA10]	4.59

Please find the next sequence below.
Input line: // protein stability index lookup, key: GTAGPLALARDLLSETADPFFVLN [GMPPB]
Output line: 3.23

====

- Experimental Protocol: protein stability index of a GFP-peptide fusion (GPS, HEK-293T) (PSI 1-6); higher = more stable
- Assay Conditions: treatment: DMSO; c terminus: a fixed tail appended
Readout Kind: protein stability index
Give only the figure.

Entry Sequence	protein stability index
TGPPCDRQWTVSDWGPCSGSCGQG [ADAMTSL2]	3.67

With those in mind, consider the next sequence.
Input line: Which protein stability index is listed for RVSRKPTAAMRCMCPLYDPNRQLW [GAN] ?
Output line: 2.48

====

- Experimental Protocol: protein stability index of a GFP-peptide fusion (GPS, HEK-293T) (PSI 1-6); higher = more stable
- Assay Conditions: treatment: MLN4924 1 uM, 8 h; c terminus: a fixed tail appended
Mark Yes for reported protein stability index of 3 or greater; mark No for anything smaller.

# count of solved cases: 5
Entry Sequence	Label
TQSLPTASASKFPSSGPVTPQPTA [AUP1]	Yes
STIVVMLTKLREMGREKCHQYWPA [PTPRD]	No
DYVQLENQWETPPEDLQTDLAKLV [ZNF449]	Yes
MDEISEKLKKGICEALEDSDGRQD [MATN2]	Yes
LKRAFEAANLPALVLKIMSGTFAP [NEK8]	No

Input line: Hi, just wondering whether NFFRMFDRNTKRDVTLEASRESSK [PPP2R2C] shows protein stability index of 3 or higher.
Output line: Yes

Input line: Entry YRSLGSVQAPSYGARPVSSAASVY [KRT18] : is its protein stability index no less than 3?
Output line: Yes
